Molecular target: PI3K delta (Homo sapiens (Human))
Sequence (O00329 other isoform, or with tags, fused parts or gaps linker GGGGGG): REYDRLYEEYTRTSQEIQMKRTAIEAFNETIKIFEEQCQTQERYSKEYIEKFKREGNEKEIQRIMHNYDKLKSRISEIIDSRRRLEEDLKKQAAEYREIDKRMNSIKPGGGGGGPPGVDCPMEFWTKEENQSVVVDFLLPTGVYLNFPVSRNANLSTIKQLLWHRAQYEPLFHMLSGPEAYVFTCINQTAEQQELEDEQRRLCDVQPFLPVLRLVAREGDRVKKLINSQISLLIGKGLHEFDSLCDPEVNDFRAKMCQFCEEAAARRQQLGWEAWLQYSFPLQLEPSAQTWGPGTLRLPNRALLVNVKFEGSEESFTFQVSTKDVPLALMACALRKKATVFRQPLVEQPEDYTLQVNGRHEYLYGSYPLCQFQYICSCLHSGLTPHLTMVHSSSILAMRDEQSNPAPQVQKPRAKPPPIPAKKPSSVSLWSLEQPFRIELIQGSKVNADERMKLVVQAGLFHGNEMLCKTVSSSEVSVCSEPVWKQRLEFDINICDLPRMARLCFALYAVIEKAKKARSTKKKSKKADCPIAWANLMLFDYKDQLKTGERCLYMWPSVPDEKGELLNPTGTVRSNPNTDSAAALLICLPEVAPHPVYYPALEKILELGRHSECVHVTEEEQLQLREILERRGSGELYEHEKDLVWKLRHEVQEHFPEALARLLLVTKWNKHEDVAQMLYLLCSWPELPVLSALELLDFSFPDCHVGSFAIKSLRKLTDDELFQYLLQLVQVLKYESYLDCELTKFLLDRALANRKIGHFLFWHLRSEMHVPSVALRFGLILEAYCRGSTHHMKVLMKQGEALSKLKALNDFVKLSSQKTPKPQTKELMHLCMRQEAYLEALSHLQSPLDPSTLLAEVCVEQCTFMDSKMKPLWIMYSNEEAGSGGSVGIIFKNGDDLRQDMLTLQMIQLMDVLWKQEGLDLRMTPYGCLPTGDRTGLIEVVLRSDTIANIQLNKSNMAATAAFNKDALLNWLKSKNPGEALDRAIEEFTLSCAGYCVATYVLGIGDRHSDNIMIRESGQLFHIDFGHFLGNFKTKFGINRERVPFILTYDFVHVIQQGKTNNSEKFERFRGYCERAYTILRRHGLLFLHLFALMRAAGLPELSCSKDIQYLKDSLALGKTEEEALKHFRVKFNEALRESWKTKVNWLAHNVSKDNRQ
Experiment: Enzymatic PI3K delta isoform inhibition (lipid kinase activity, Kinase-Glo luminescence)
Conditions: Enzymatic assay
recordedMetric: IC50 (µM)
State just the number; it will be interpreted in µM.

Quick check: IC50 of COc1ncc(N2CCOc3ccc(O[C@H]4CCN(C(=O)C5CCOC5)C4)cc32)cc1F (stereo partly shown) ?
0.013

---

Target: PI3K alpha (Homo sapiens (Human), UniProt P42336)
Sequence (P42336 other isoform, or with tags, fused parts or gaps): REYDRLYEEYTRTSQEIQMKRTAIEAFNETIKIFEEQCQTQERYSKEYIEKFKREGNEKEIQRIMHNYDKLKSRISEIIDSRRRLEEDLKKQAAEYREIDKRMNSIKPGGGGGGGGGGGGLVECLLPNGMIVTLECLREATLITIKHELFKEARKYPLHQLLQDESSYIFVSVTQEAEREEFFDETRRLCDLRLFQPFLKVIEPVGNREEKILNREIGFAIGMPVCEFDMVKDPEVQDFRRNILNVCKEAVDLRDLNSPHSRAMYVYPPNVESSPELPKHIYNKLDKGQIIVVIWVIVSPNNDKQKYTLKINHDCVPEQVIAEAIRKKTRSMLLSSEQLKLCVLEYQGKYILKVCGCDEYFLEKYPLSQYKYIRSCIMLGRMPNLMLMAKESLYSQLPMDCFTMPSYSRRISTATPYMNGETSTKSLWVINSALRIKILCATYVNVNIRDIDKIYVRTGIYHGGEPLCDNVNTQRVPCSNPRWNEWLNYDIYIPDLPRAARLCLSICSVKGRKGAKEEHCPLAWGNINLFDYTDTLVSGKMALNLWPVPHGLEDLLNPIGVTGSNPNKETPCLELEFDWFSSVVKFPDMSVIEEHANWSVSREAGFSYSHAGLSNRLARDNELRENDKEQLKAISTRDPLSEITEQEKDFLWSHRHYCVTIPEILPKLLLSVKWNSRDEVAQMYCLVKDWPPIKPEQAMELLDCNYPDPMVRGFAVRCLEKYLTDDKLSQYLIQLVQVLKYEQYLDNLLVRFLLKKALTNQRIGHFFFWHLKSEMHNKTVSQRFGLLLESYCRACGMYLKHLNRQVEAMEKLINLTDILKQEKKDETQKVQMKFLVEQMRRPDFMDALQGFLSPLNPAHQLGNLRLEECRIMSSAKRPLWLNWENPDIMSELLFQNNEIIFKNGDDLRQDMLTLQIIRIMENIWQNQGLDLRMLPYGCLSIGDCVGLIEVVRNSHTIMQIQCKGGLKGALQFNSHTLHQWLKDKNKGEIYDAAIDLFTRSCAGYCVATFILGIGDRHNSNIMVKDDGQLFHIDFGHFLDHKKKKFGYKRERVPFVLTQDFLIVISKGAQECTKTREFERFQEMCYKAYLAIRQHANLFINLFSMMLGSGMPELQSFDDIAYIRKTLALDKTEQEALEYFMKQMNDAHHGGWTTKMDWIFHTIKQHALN
Assay: Enzymatic PI3K alpha isoform inhibition (lipid kinase activity, Kinase-Glo luminescence)
Conditions: Enzymatic assay
# IC50 values compiled below
State just the number; it will be interpreted in nM.

{"columns": ["molecule", "valueUnit", "IC50"],
 "data": [
  ["COc1ncc(N2CCOc3cnc(O[C@H]4CCN(C(=O)C5CCS(=O)(=O)CC5)C4)cc32)cc1C(F)F", "nM", 71],
  ["COc1ncc(N2CCOc3ccc(O[C@H]4CCN(C(=O)c5ocnc5C)C4)cc32)cc1C#N", "nM", 117],
  ["CCS(=O)(=O)N1CC[C@H](Oc2ccc3c(c2)N(c2cnc(S(C)(=O)=O)c(C)c2)CCO3)C1", "nM", 346],
  ["O=C(C1CCOCC1)N1CC[C@H](Oc2ccc3c(c2)N(c2ccc(C(F)(F)F)nc2)CCO3)C1", "nM", 1140],
  ["COc1ncc(N2CCOc3ccc(O[C@H]4CCN(C(=O)C(C)(C)O)C4)cc32)cc1C#N", "nM", 711]
]}

The record that follows has no IC50 shown yet.
Quick check: IC50 of COc1ncc(N2CCOc3cnc(O[C@H]4CCN(C(=O)C5CCOCC5)C4)cc32)cc1C(F)F ?
38
